- assay.procedure: qHTS of pediatric cancer cell lines to identify multiple opportunities for drug repurposing: Primary screen for OHS-50 cells (AID 1347103); also: nearly all actives have a fitted effect of over 40% in size
- condition.notes: OHS-50 osteosarcoma viability, CellTiter-Glo luminescence, 48 h; series mostly up to 57.3 µM
Records with an inconclusive call do not appear. Calls of active or inactive are those of the source. Calls follow the shape of the dose curve; as a rule, active = well fitted cell-killing curve with a large enough effect; inconclusive = small, poorly fitted or top-dose-only effect; inactive = no such curve, though single readings can be large or run the other way.
Labels: active, inactive

> print(dat)
                                    compound  category.label
 1                              CCOCCOC(C)=O        inactive
 2  CCNC(=O)C[C@@H]1N=C(c2ccc(Cl)cc2)c2cc(OC)ccc2-n2c(C)nnc21          active
 3  COc1cccc2c1[C@]13CCN(CC4CC4)[C@H](C2)[C@]1(OC)CCC(=O)C3        inactive
 4  Cc1ccccc1-n1c(Cn2ncc3c(N)ncnc32)nc2cccc(C)c2c1=O          active
 5  COc1ccc(C(=O)c2c(C)n(CCN3CCOCC3)c3cc(I)ccc23)cc1          active
 6  COc1ccc2c(c1)CN(C)CC2c1ccc(Cl)c(Cl)c1 (centres undefined)          active
 7                          Fc1cc(Br)ccc1CBr        inactive
 8  CC(N[C@H]1C[C@H]1c1ccccc1)c1ccc2c(c1)OCCO2 (some centres undefined)        inactive
 9               CCCCCCCCCCCCCCCC[N+](C)(C)C          active
10  CCc1c(C(=O)C(N)=O)c2c(OCC(=O)O)cccc2n1Cc1ccccc1        inactive
11                       C=CC(=O)NCNC(=O)C=C        inactive
12  C[C@@H]1O[C@@H](O[C@@H]2C=C3CC[C@@H]4[C@@H](CC[C@]5(C)[C@H](c6ccc(=O)oc6)CC[C@@]45O)[C@@]3(C)CC2)[C@H](O)[C@H](O)[C@H]1O          active
13  CC(C)NCC(O)c1ccc([N+](=O)[O-])cc1 (centres undefined)        inactive
14  CCN1CCN(C(=O)Cc2ccc(Nc3ncc(F)c(Nc4ccc(C(=O)Nc5ccccc5Cl)cc4)n3)cc2)CC1          active
15  CCN1C[C@]2(OC(=O)c3ccccc3NC(C)=O)CC[C@H](OC)[C@@]34[C@H]5CC6[C@@H](OC)C[C@](O)(C(C[C@@H]23)[C@@H]14)[C@@]5(O)[C@@H]6OC        inactive
16  O=C(O)c1cc(Oc2ccc(C(F)(F)F)cc2Cl)ccc1[N+](=O)[O-]        inactive
17  CC(C)(C)[C@]1(O)C[C@@H]2OC(=O)C[C@@]23C(=O)O[C@@H]2OC(=O)[C@H](O)C213 (some centres undefined)        inactive
18  N#C[C@H](O[C@@H]1O[C@H](CO[C@@H]2O[C@H](CO)[C@H](O)[C@H](O)[C@H]2O)[C@H](O)[C@H](O)[C@H]1O)c1ccccc1          active
19          CC(O)=C(C#N)C(=O)Nc1cc(Br)ccc1Br        inactive

----------
- assay.procedure: Immunotoxin (HA22) sensitization/mitigation study. Vehicle arm (PBS) (AID 1159510)
- condition.notes: cancer cells viability with PBS vehicle (HA22 study); series mostly up to 46.1 µM
Activity calls are given as the source filed them. The rule behind the calls is not given here.
Outcomes: 1 for active, 0 for inactive

> print(dat)
                                    compound  category.label
 1  O=c1cc(CN2CCOCC2)occ1OCCCCCSc1ccnc2cc(C(F)(F)F)ccc12               1
 2  CN([C@@H](Cc1ccc(OS(=O)(=O)c2cccc3cnccc23)cc1)C(=O)N1CCN(c2ccccc2)CC1)S(=O)(=O)c1cccc2cnccc12               0
 3      CCCCCCCc1ccc(CCc2cccc(O)c2C(=O)O)cc1               1
 4  COc1cc2nccc(Oc3ccc(NC(=O)Nc4cc(C)on4)c(Cl)c3)c2cc1OC               1
 5  Cn1c(=O)c(F)c(Nc2ccc(I)cc2F)c2c(=O)n(C[C@@H](O)CO)cnc21               1
 6  CN1CCC(CNc2ccc3ncc(-c4cccc(OC(F)(F)F)c4)n3n2)CC1               1
 7  c1cc(-c2cnn3cc(-c4ccc(OCCN5CCCCC5)cc4)cnc23)ccn1               1
 8  C[C@@H](N)C1CCC(C(=O)Nc2ccncc2)CC1 (some centres undefined)               0
 9  COc1cc2ncn(-c3cc(OCc4ccccc4C(F)(F)F)c(C(N)=O)s3)c2cc1OC               1
10  CC(C)(C)OC(=O)Nc1ccc(-c2cc(C(=O)NCCCCCCC(=O)NO)no2)cc1               1
11  CNC(=O)c1cc(Oc2ccc(NC(=O)Nc3cc(C(C)(C)C)nn3-c3ccc4ncccc4c3)c(F)c2)ccn1               1
12  CC(C)[C@]12O[C@H]1[C@@H]1O[C@]13[C@]1(O[C@H]1C[C@H]1C4=C(CC[C@@]13C)C(=O)OC4)[C@@H]2O               1
13  COc1ccc(CC2SC(=O)NC2=O)cc1C(=O)NCc1ccc(C(F)(F)F)cc1 (centres undefined)               0
14  CCN(CC)CCCCNc1ncc2cc(-c3cc(OC)cc(OC)c3)c(NC(=O)NC(C)(C)C)nc2n1               1

----------
# max response values compiled below
- assay.procedure: qHTS assay for small molecule agonists of the antioxidant response element (ARE) signaling pathway measured by Nrf2-dependant transcriptional activity - cell viability counter screen (AID 720653); also: % is scaled to controls: 0 for no effect and ±100 for the full control effect
- condition.notes: ARE-bla HepG2 viability, CellTiter-Glo ATP luminescence, 16 h; active compounds read low
Results filed as inconclusive are left out. The source made the active and inactive calls. Calls follow the shape of the dose curve; as a rule, active = well fitted cell-killing curve with a large enough effect in the repeat runs; inconclusive = weak or mixed curves; inactive = flat fitted curve, though single readings scatter.
assay.readout: max response

> print(dat)
                              mol.smiles         data.value
1            Nc1c(Cl)c(Cl)c(Cl)c(Cl)c1Cl   1.83% (inactive)
2                 Nc1ccc(N=Nc2ccccc2)cc1  -5.85% (inactive)
3       O=[N+]([O-])c1c2ccccc2cc2ccccc12  -1.85% (inactive)
4  O=C(Nc1ccccc1-c1ccc(Cl)cc1)c1cccnc1Cl  -1.23% (inactive)

----------
- assay.procedure: qHTS for Inhibitors of the Functional Ribonucleoprotein Complex (vRNP) of Lassa (LASV) Arenavirus: LASV Primary Screen - GLuc reporter signal (AID 1347082); also: nearly all actives have a fitted effect of over 60% in size
- condition.notes: LASV minigenome vRNP, Gaussia luciferase reporter; series mostly up to 57.5 µM
Results filed as inconclusive are left out. Active and inactive are the calls of the source. Calls come from the whole dose curve; tested in HEK293 reporter line.
Outcome codes: T = active, F = inactive

mol.smiles	category.label
COc1cc(OC2CCN(C)CC2)ccc1Nc1ncc2c(n1)n(C1CCCC1)c(=O)n2C	F
COc1ccc(CCN(C)CCCOc2ccc(S(=O)(=O)c3[nH]c4ccccc4c3C(C)C)cc2)cc1OC	F
CCOC(=O)[C@@H](N)CCC(=O)N[C@@H](CSCc1ccccc1)C(=O)N[C@@H](C(=O)OCC)c1ccccc1	F
CC(O)=C(C#N)C(=O)Nc1cc(Br)ccc1Br	F
COc1nc(C)cnc1NS(=O)(=O)c1cccnc1-c1ccc(-c2nnco2)cc1	F
CN(C)NC(=O)CCC(=O)O	F
Cc1cccc(C#Cc2ccccc2)n1	F
Cn1c(=O)n(-c2ccc(C(C)(C)C#N)cc2)c2c3cc(-c4cnc5ccccc5c4)ccc3ncc21	T
NC(=NCCC[C@H](N)C(=O)O)N[N+](=O)[O-]	F
CCCCc1ccc(NS(=O)(=O)c2ccc(C)c(C(=O)N3CCN(c4cccc(C)c4C)CC3)c2)cc1	F
CC(=O)NCCC(=O)N[C@@H](CCC(N)=O)C(=O)N[C@@H](CO)C(=O)N[C@@H](CCC(N)=O)C(=O)N[C@@H](CCC(N)=O)C(=O)N[C@H](C(=O)N[C@@H](Cc1ccccc1)C(=O)N[C@]1(C)CCCCCCC=CCCC[C@@](C)(C(=O)N[C@@H](CCC(N)=O)C(=O)N[C@@H](CC(N)=O)C(N)=O)NC(=O)[C@H](CC(C)C)NC(=O)[C@H](CC(C)C)NC(=O)[C@@H](CCCNC(=N)N)NC(=O)[C@H](Cc2c[nH]c3ccccc23)NC(=O)[C@H](CC(C)C)NC(=O)[C@H](CC(N)=O)NC1=O)[C@H](C)O	F

----------
- assay.procedure: Cell Viability - LYMP2-010 (AID 981);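 also: cells exposed to compound for 24 hours at 37 °C; nearly all actives have a fitted effect of over 55% in size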
- condition.notes: LYMP2-010 lymphoblastoid cell viability, qHTS; series mostly up to 92.2 µM
Records with an inconclusive call do not appear. Calls of active or inactive are those of the source. Calls follow the shape of the dose curve; as a rule, active = well fitted cell-killing curve with a large enough effect; inconclusive = small, poorly fitted or top-dose-only effect; inactive = flat fitted curve, though single readings scatter.
Classes used: 1.0 (active), 0.0 (inactive)

> print(dat)
                                    compound  category.label
 1                              CCOCCOC(C)=O             0.0
 2                          O=C(O)COc1ccccc1             0.0
 3         O=S(=O)(c1ccc(Cl)cc1)c1ccc(Cl)cc1             0.0
 4    COc1ccc(C(c2ccc(OC)cc2)C(Cl)(Cl)Cl)cc1             0.0
 5          O=[N+]([O-])c1c2ccccc2cc2ccccc12             0.0
 6                             Nc1ccc(Cl)cc1             0.0
 7  CN(C)[C@@H]1C(=O)C(C(N)=O)=C(O)[C@@]2(O)C(=O)C3=C(O)c4c(O)cccc4[C@@](C)(O)[C@H]3[C@H](O)[C@@H]12             0.0
 8                   Nc1ccc(Sc2ccc(N)cc2)cc1             0.0
 9  CCCCC(CC)COC(=O)c1ccccc1C(=O)OCC(CC)CCCC (stereo not drawn)             0.0
10                            Nc1ccc(Cl)cc1N             0.0
11                   CC(=O)[O][Hg][c]1ccccc1             1.0
12        O=[N+]([O-])c1c(Cl)c(Cl)cc(Cl)c1Cl             0.0
13                       C=CC(=O)NCNC(=O)C=C             0.0
